Here the recorded pIC50 is given for each entry.
Target: CDK7/Cyclin H/MAT1 complex (Homo sapiens, UniProt P50613)
Sequence (P50613 whole entry): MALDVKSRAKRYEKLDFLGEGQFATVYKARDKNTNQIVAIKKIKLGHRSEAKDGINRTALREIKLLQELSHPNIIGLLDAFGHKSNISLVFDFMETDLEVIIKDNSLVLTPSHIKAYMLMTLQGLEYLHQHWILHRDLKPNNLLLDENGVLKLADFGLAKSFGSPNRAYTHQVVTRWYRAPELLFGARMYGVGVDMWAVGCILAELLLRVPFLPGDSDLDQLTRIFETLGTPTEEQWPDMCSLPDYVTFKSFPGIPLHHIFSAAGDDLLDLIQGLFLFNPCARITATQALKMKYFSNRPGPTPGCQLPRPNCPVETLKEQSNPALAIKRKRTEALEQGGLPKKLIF
Sequence (P51946 whole entry partner): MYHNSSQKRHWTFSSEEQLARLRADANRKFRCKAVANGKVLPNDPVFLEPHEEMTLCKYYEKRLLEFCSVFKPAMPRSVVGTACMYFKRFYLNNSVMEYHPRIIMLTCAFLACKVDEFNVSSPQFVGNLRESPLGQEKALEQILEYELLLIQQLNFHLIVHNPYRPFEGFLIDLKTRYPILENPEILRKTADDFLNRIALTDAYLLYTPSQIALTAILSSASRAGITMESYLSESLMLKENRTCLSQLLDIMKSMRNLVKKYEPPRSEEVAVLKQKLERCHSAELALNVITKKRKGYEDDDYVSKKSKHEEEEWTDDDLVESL
Sequence (P51948 whole entry partner): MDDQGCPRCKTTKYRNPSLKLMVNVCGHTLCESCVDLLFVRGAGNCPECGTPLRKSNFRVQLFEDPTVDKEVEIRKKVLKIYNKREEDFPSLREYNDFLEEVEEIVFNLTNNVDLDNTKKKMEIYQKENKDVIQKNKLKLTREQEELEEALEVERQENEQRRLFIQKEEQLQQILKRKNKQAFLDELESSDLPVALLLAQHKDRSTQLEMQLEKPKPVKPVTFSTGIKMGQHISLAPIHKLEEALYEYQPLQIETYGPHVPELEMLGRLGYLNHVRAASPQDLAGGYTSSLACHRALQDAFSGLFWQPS
Experiment: CDK7 kinase inhibition assay (Caliper/LabChip EZ Reader)
Conditions: CDK7/Cyclin H/MAT1 6 nM, ATP 2 mM, 35 min at 27° C.
pIC50: −log10 of the molar value.

Compound	pIC50
OCc1cncc(-c2ccc3c(-c4nc(NC5CCCNC5)ncc4C(F)(F)F)c[nH]c3c2)c1 (stereo not drawn)	> 7.70
N#Cc1ccc2c(-c3nc(N[C@H]4CCCNC4)ncc3SC(F)F)c[nH]c2c1	6.70 to 7.70
CCOP(=O)(OCC)c1cccc2c(-c3nc(NC4CCCNC4)ncc3C(F)(F)F)c[nH]c12 (stereo not drawn)	5.30 to 6.70
CS(=O)(=O)c1cccn2c(C3CNCC(Nc4ncc(C(F)(F)F)c(-c5c[nH]c6ccccc56)n4)C3)nnc12 (stereo not drawn)	5.30 to 6.70
Clc1cnc(NC2CCCNC2)nc1-c1c[nH]c2ccccc12 (stereo not drawn) [Compound 100]	> 7.70
CC(O)c1cnc(NC2CCCNC2)nc1-c1c[nH]c2ccccc12 (stereo not drawn) [Compound 239]	5.30 to 6.70
